test-system: Human µ-opioid receptor (Homo sapiens, UniProt P35372)
Construct: expressed in transfected cells; host or cells: CHO-K1
Sequence (P35372 whole entry): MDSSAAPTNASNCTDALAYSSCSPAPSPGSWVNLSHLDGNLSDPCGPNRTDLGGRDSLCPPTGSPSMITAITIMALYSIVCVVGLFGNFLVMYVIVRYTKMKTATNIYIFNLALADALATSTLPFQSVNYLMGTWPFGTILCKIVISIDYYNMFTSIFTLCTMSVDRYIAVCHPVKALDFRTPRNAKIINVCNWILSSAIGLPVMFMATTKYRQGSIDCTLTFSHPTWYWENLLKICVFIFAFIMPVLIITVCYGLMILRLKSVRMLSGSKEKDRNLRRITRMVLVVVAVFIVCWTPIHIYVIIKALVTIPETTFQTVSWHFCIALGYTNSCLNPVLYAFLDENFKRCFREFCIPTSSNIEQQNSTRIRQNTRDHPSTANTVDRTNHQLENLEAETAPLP
test-description: Human µ-opioid receptor radioligand assay ([3H]-DAMGO)
Assay type: binding
pKi: −log10 of the molar value.
Measured pKi of individual entries

CCC[C@@H](c1cnc2ccc(CN3CCC(c4cccc(O)c4)(N(C)C)CC3)cc2n1)N1C[C@@H](C)N[C@@H](C)C1 :: > 7.00
CCC[C@@H](c1cnc2cc(CN3CCC(c4ccccc4)(N(C)C)CC3)ccc2c1)N1C[C@@H](C)N[C@@H](C)C1 :: 6.30 to 7.00
CCC[C@@H](c1ccc2cc(CN3CCC(c4cccc(O)c4)(N(C)C)CC3)ccc2n1)N1C[C@@H](C)N[C@@H](C)C1 :: > 7.00
CCC[C@H](c1ncc2cc(CN3CCC(c4cccc(O)c4)(N(C)C)CC3)ccc2n1)N1C[C@@H](C)N[C@@H](C)C1 :: > 7.00
CCC[C@@H](c1ncc2cc(CN3CCC(c4cccc(O)c4)(N(C)C)CC3)ccc2n1)N1C[C@@H](C)N[C@@H](C)C1 :: > 7.00

Would you kindly look at the next entry?
# return recorded pKi for input `CCC[C@@H](c1cnc2cc(CN3CCC(c4cccc(O)c4)(N(C)C)CC3)ccc2c1)N1C[C@@H](C)N[C@@H](C)C1`
> 7.00

----------
test-system: Human µ-opioid receptor (Homo sapiens, UniProt P35372)
Construct: expressed in transfected cells; host or cells: CHO-K1
test-description: Human µ-opioid receptor radioligand assay ([3H]-DAMGO)
Assay type: binding
parameter: Ki

CCC[C@@H](c1cnc2cc(N3CCC(c4cccc(O)c4)(N(C)C)CC3)ccc2c1)N1C[C@@H](C)N[C@@H](C)C1 :: < 100 nM
CCC[C@H](c1cnc2ccc(CN3CCC(c4ccccc4)(N(C)C)CC3)cc2c1)N1C[C@@H](C)N[C@@H](C)C1 :: 100 to 500 nM
CCCC(c1ccc2cc(N3CCC(c4cccc(O)c4)(N(C)C)CC3)ccc2n1)N1C[C@@H](C)N[C@@H](C)C1 (stereo partly shown) :: < 100 nM
CCCC(c1cnc2cc(N3CCC(c4cccc(O)c4)(N(C)C)CC3)ccc2n1)N1C[C@@H](C)N[C@@H](C)C1 (stereo partly shown) :: < 100 nM
CCCC(c1cnc2cc(N3CCC(c4cccc(O)c4)(N(C)C)CC3)ccc2c1)N1C[C@@H](C)N[C@@H](C)C1 (stereo partly shown) :: < 100 nM

Please indicate Ki recorded for `CCC[C@@H](c1cnc2ccc(CN3CCC(c4ccccc4)(N(C)C)CC3)cc2c1)N1C[C@@H](C)N[C@@H](C)C1`
< 100 nM

// Input: `CCC[C@@H](c1cnc2ccc(N3CCC(c4cccc(O)c4)(N(C)C)CC3)cc2n1)N1C[C@@H](C)N[C@@H](C)C1` . Output its Ki only.
100 to 500 nM

----------
# maps each entry to its Ki
test-system: Human µ-opioid receptor (Homo sapiens)
Construct: expressed in transfected cells; host or cells: CHO-K1
test-description: Human µ-opioid receptor radioligand assay ([3H]-DAMGO)
Assay type: binding

Below are worked cases with known answers.
CCC[C@@H](c1cnc2ccc(CN3CCC(c4cccc(O)c4)(N(C)C)CC3)cc2c1)N1C[C@@H](C)N[C@@H](C)C1 :: < 100 nM
CCCC(c1ncc2cc(CN3CCC(c4cccc(O)c4)(N(C)C)CC3)ccc2n1)N1C[C@@H](C)N[C@@H](C)C1 (stereo partly drawn) :: < 100 nM

Now for the molecule whose Ki we want.
Find Ki for `CCC[C@@H](c1cc2ccc(CN3CCC(c4cccc(O)c4)(N(C)C)CC3)cc2nc1CC)N1C[C@@H](C)N[C@@H](C)C1` on Human µ-opioid receptor (Homo sapiens) and write it down.
< 100 nM

----------
test-system: Human µ-opioid receptor (Homo sapiens, UniProt P35372)
Construct: expressed in transfected cells; host or cells: CHO-K1
test-description: Human µ-opioid receptor radioligand assay ([3H]-DAMGO)
Assay type: binding
conditions: transfected CHO-K1 cell membranes, [3H]-DAMGO 1 nM; read-out: µ-binding
pKi: −log10 of the molar value.
Documented pKi across a set of compounds

CCCC(c1cnc2ccc(N3CCC(c4cccc(O)c4)(N(C)C)CC3)cc2c1)N1C[C@@H](C)N[C@@H](C)C1 (some centres unmarked) :: < 6.30
CCCC(c1cc2ccc(CN3CCC(c4cccc(O)c4)(N(C)C)CC3)cc2nc1CC)N1C[C@@H](C)N[C@@H](C)C1 (some centres unmarked) :: > 7.00

Quote pKi reported for `CCC[C@H](c1cnc2cc(CN3CCC(c4ccccc4)(N(C)C)CC3)ccc2c1)N1C[C@@H](C)N[C@@H](C)C1` please.
6.30 to 7.00

Identify pKi associated with the compound `CCC[C@H](c1cc2ccc(CN3CCC(c4cccc(O)c4)(N(C)C)CC3)cc2nc1CC)N1C[C@@H](C)N[C@@H](C)C1`
> 7.00

Please report pKi for the following compound: `CCC[C@H](c1cnc2ccc(CN3CCC(c4cccc(O)c4)(N(C)C)CC3)cc2c1)N1C[C@@H](C)N[C@@H](C)C1`
> 7.00

----------
test-system: Human α2δ-1 subunit of Cav2.2 calcium channel (Homo sapiens, UniProt P54289)
Sequence (P54289 25-1103): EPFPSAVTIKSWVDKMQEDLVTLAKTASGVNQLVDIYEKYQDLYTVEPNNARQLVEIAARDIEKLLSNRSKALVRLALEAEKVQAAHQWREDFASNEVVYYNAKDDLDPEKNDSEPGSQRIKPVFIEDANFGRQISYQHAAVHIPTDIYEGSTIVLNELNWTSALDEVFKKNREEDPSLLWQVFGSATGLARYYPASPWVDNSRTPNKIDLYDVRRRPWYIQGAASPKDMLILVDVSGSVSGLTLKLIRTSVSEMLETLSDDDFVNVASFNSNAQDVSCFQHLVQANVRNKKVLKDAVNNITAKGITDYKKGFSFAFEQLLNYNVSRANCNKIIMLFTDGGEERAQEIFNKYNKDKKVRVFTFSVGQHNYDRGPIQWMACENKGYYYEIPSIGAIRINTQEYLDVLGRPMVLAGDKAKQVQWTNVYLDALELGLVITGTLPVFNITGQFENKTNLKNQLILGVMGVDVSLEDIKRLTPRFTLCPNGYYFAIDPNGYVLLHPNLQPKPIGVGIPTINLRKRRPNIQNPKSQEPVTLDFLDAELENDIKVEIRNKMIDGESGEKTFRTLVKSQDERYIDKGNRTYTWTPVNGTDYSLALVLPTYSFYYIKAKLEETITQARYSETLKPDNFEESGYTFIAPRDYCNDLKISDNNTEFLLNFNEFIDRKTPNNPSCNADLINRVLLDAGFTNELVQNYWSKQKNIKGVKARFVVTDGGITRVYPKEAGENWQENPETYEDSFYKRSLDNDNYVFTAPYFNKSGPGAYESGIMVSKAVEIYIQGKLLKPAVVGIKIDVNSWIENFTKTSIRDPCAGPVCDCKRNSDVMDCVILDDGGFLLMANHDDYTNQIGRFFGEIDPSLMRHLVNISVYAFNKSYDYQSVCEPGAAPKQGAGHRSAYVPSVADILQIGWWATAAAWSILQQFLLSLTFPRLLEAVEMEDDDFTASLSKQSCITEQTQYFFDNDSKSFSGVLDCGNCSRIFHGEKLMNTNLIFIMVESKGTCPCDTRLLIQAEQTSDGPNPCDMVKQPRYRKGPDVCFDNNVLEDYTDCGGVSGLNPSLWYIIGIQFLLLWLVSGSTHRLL
test-description: Human α2δ-1 subunit of Cav2.2 calcium channel assay ([3H]-Gabapentin binding)
conditions: human α2δ-1 enriched membranes, [3H]-Gabapentin 15 nM; read-out: α2δ-1 binding
pKi: −log10 of the molar value.
parameter: pKi

// solved cases for pKi follow
CCC[C@@H](c1cnc2cc(N3CCC(c4cccc(O)c4)(N(C)C)CC3)ccc2c1)N1C[C@@H](C)N[C@@H](C)C1 :: < 5.30
CCC[C@@H](c1cnc2ccc(N3CCC(c4cccc(O)c4)(N(C)C)CC3)cc2n1)N1C[C@@H](C)N[C@@H](C)C1 :: 5.30 to 6.30
CCC[C@@H](c1cnc2cc(CN3CCC(c4cccc(O)c4)(N(C)C)CC3)ccc2c1)N1C[C@@H](C)N[C@@H](C)C1 :: 5.30 to 6.30

Let me know recorded pKi for `CCC[C@H](c1ncc2cc(CN3CCC(c4cccc(O)c4)(N(C)C)CC3)ccc2n1)N1C[C@@H](C)N[C@@H](C)C1` , thanks.
5.30 to 6.30

Please give the documented pKi of `CCC[C@@H](c1cnc2cc(CN3CCC(c4ccccc4)(N(C)C)CC3)ccc2c1)N1C[C@@H](C)N[C@@H](C)C1`
< 5.30

Determine its reported pKi: CCCC(c1cnc2cc(N3CCC(c4cccc(O)c4)(N(C)C)CC3)ccc2c1)N1C[C@@H](C)N[C@@H](C)C1 (stereo partly drawn)
5.30 to 6.30

----------
test-system: Human α2δ-1 subunit of Cav2.2 calcium channel (Homo sapiens)
test-description: Human α2δ-1 subunit of Cav2.2 calcium channel assay ([3H]-Gabapentin binding)
conditions: human α2δ-1 enriched membranes, [3H]-Gabapentin 15 nM; read-out: α2δ-1 binding
# Ki per entry

CCCC(c1cc2cc(CN3CCC(c4cccc(O)c4)(N(C)C)CC3)ccc2nc1CC)N1C[C@@H](C)N[C@@H](C)C1 (stereo partly shown) [Example 22] :: 0.5 to 5 µM
CCC[C@@H](c1cnc2ccc(CN3CCC(c4cccc(O)c4)(N(C)C)CC3)cc2c1)N1C[C@@H](C)N[C@@H](C)C1 [Example 17] :: > 5 µM
CCC[C@@H](c1nc2ccc(CN3CCC(c4cccc(O)c4)(N(C)C)CC3)cc2nc1CC)N1C[C@@H](C)N[C@@H](C)C1 [Example 42] :: 0.5 to 5 µM
CCC[C@@H](c1cnc2ccc(CN3CCC(c4cccc(O)c4)(N(C)C)CC3)cc2n1)N1C[C@@H](C)N[C@@H](C)C1 [Example 39] :: 0.5 to 5 µM
CCC[C@@H](c1cc2ccc(CN3CCC(c4cccc(O)c4)(N(C)C)CC3)cc2nc1CC)N1C[C@@H](C)N[C@@H](C)C1 [Example 24] :: 0.5 to 5 µM
CCCC(c1ccc2cc(N3CCC(c4cccc(O)c4)(N(C)C)CC3)ccc2n1)N1C[C@@H](C)N[C@@H](C)C1 (stereo partly shown) [Example 3] :: 0.5 to 5 µM

With Human α2δ-1 subunit of Cav2.2 calcium channel (Homo sapiens) as the test system, provide measured Ki for this compound: CCC[C@H](c1cnc2cc(N3CCC(c4cccc(O)c4)(N(C)C)CC3)ccc2c1)N1C[C@@H](C)N[C@@H](C)C1 [Example 4]
0.5 to 5 µM

For Human α2δ-1 subunit of Cav2.2 calcium channel (Homo sapiens), give Ki of the listed compound: CCCC(c1cnc2cc(N3CCC(c4cccc(O)c4)(N(C)C)CC3)ccc2n1)N1C[C@@H](C)N[C@@H](C)C1 (stereo partly shown) [Example 32]
0.5 to 5 µM

Give Ki for this entry on Human α2δ-1 subunit of Cav2.2 calcium channel (Homo sapiens): CCC[C@@H](c1cnc2ccc(CN3CCC(c4ccccc4)(N(C)C)CC3)cc2c1)N1C[C@@H](C)N[C@@H](C)C1 [Example 19]
> 5 µM

Look up and report Ki, with Human α2δ-1 subunit of Cav2.2 calcium channel (Homo sapiens) as system, for CCCC(c1ncc2cc(CN3CCC(c4cccc(O)c4)(N(C)C)CC3)ccc2n1)N1C[C@@H](C)N[C@@H](C)C1 (stereo partly shown) [Example 28]
> 5 µM

For Human α2δ-1 subunit of Cav2.2 calcium channel (Homo sapiens), give the measured Ki of the entry CCC[C@H](c1cnc2ccc(CN3CCC(c4ccccc4)(N(C)C)CC3)cc2c1)N1C[C@@H](C)N[C@@H](C)C1 [Example 18]
0.5 to 5 µM

Given CCC[C@@H](c1ccc2cc(CN3CCC(c4cccc(O)c4)(N(C)C)CC3)ccc2n1)N1C[C@@H](C)N[C@@H](C)C1 [Example 11] , report its Ki on Human α2δ-1 subunit of Cav2.2 calcium channel (Homo sapiens).
0.5 to 5 µM

Give reported Ki for CCC[C@@H](c1ncc2cc(CN3CCC(c4cccc(O)c4)(N(C)C)CC3)ccc2n1)N1C[C@@H](C)N[C@@H](C)C1 [Example 30] (Human α2δ-1 subunit of Cav2.2 calcium channel (Homo sapiens))
> 5 µM
